Values compiled from paper PMC4311625.

Molecular target: ACE2 (Homo sapiens)
Sequence (Q9BYF1 18-805, species assumed): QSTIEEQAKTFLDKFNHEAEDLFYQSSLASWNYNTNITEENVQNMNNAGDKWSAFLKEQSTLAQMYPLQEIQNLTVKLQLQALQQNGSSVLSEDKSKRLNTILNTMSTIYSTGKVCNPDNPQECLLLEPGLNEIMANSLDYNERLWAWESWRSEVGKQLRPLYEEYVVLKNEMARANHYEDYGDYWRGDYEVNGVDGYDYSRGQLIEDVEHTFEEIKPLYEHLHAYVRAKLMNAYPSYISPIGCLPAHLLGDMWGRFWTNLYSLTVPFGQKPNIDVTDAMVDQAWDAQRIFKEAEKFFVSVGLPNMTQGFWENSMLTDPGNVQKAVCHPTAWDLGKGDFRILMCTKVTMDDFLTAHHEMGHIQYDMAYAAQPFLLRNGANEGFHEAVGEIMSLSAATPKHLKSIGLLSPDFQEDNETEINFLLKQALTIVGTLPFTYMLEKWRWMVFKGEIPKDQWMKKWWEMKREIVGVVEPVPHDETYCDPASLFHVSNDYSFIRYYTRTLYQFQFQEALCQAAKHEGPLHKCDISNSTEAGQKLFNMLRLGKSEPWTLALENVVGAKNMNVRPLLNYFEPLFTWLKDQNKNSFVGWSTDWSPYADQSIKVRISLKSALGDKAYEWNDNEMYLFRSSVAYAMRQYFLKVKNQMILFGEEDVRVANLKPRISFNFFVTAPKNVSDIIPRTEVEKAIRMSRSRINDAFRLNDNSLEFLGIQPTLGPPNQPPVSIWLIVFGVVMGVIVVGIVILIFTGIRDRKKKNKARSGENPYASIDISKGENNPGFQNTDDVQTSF
Assay: ACE2 quenched fluorescence substrate (QFS) inhibition assay
Assay type: biochemical
Settings: peptide 100 μM; 50 uM QFS, 1 M NaCl, 100 mM Tris-Cl pH 6.5, 37 °C, 1 h; triplicate; read-out: Inhibition (%) of ACE2, single and multiple residue substitution analogs (Table 2)
Peptide text beside a SMILES is read from it.
Task for the reader: assign each of the following molecules its reported inhibition at 100 µM.

MOLECULE	inhibition at 100 µM
CC[C@H](C)[C@H](N)C(=O)N[C@@H](Cc1ccc(O)cc1)C(=O)N[C@H](C(=O)N[C@@H](Cc1ccccc1)C(=O)O)C(C)C [IYVF] (H-IYVF-OH)	77%

State recorded inhibition at 100 µM for all listed molecules.
1. CC[C@H](C)[C@H](NC(=O)[C@H](Cc1ccc(O)cc1)NC(=O)[C@@H](NC(=O)[C@H](CCCNC(=N)N)NC(=O)[C@@H](N)CC(=O)O)C(C)C)C(=O)N[C@@H](Cc1cnc[nH]1)C(=O)N1CCC[C@H]1C(=O)N[C@@H](Cc1ccccc1)C(=O)O [Angiotensin II, reference compound]
2. CC(C)[C@H](N)C(=O)N[C@@H](Cc1c[nH]cn1)C(=O)N1CCC[C@H]1C(=O)N[C@@H](Cc1ccccc1)C(=O)O [VHPF] (H-VHPF-OH)
3. CC(C)[C@H](N)C(=O)N[C@@H](Cc1ccc(O)cc1)C(=O)N[C@H](C(=O)N[C@@H](Cc1ccccc1)C(=O)O)C(C)C [VYVF] (H-VYVF-OH)
4. CC(C)[C@H](NC(=O)[C@H](Cc1ccc(O)cc1)NC(=O)[C@@H]1CCCN1)C(=O)N[C@@H](Cc1ccccc1)C(=O)O [PYVF] (H-PYVF-OH)
5. CC(C)[C@H](NC(=O)[C@H](Cc1c[nH]cn1)NC(=O)[C@@H]1CCCN1)C(=O)N[C@@H](Cc1ccccc1)C(=O)O [PHVF] (H-PHVF-OH)

// result
["97%", "78%", "78%", "94%", "93%"]

State recorded inhibition at 100 µM for all listed molecules.
1. CC[C@H](C)[C@H](N)C(=O)N[C@@H](Cc1c[nH]cn1)C(=O)N[C@H](C(=O)N[C@@H](Cc1ccccc1)C(=O)O)C(C)C [IHVF] (H-IHVF-OH)
2. CC(C)[C@H](N)C(=O)N[C@@H](Cc1c[nH]cn1)C(=O)N[C@H](C(=O)N[C@@H](Cc1ccccc1)C(=O)O)C(C)C [VHVF] (H-VHVF-OH)

// result
77%
85%
